biological target: human prostacyclin synthase (PGIS), microsomal, partially purified (Homo sapiens, UniProt Q16647); construct: overexpressed in Sf21 insect cells; assay: 3-nitrotyrosine formation, Western blot and HPLC after pronase
Sequence (Q16647 whole entry): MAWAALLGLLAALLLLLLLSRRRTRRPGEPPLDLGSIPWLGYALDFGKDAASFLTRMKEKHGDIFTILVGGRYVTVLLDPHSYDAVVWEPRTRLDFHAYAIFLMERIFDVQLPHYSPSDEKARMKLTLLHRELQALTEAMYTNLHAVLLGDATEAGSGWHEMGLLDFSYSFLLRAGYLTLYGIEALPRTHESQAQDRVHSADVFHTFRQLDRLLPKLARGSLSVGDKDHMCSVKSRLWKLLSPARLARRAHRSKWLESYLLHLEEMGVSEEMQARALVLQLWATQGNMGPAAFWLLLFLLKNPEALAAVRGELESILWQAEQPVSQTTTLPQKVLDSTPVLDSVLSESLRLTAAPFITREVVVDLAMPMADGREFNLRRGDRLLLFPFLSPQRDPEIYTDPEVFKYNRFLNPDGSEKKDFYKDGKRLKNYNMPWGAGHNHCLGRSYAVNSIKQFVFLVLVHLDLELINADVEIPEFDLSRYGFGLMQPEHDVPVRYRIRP
attribute-measured: EC50 (µM)

> print(dat)
                compound  measured
1  O=NOO [peroxynitrite]         5
